test system: Plasmodium berghei; assay: Screen against P. berghei liver stage (PbLuc), transformed with Luciferase, at 2uM; format: functional, HepG2; conditions: tested at 2 uM
Screen size: about 68,000 compounds; about 2,700 (4%) showed an effect of 50% or more. Shown is part of a subset that was picked to be rich in strong results.
Recorded measurements of INHIBITION, one per entry
Your answer should be a plain number; it is taken to be in %.

// query Give INHIBITION (Plasmodium berghei) of the following molecule: COC(=O)C(CNC(=O)Nc1nncs1)Cc1cccc(C)c1 (stereo not given)
// result 12.17

// query Give INHIBITION (Plasmodium berghei) of the following molecule: CCC(C)c1noc(C2CCN(C(=O)c3cccs3)CC2)n1 (stereo not given)
// result -50.86

====

test system: Plasmodium berghei; assay: Screen against P. berghei liver stage (PbLuc), transformed with Luciferase, at 2uM; type: functional, HepG2; conditions: tested at 2 uM
Among all 68,000 compounds or so, about 2,700 (4%) showed an effect of 50% or more. The sample as a whole holds a higher share of strong results than the screen did.
READOUT LABEL: INHIBITION (%)
Quick reminder: number only, in %, skip the unit.

Sample records with INHIBITION:
// query Which INHIBITION is listed for O=C(c1cccc(Cl)c1Cl)N1CCN(CC(O)Cn2cccn2)CC1 (stereo not drawn) ?
// result 65.3

// query For CCCNC(=O)c1cc2c(nc1O)CCC(C)C2 (stereo not drawn) , what is its reported INHIBITION?
// result 44.39

// query What value of INHIBITION has been reported for the following molecule? COc1cccc(C2c3c(n[nH]c3C)N=C3COC(=O)C32)c1OC (stereo not drawn)
// result -35.07

// query Can you share its INHIBITION? I mean this molecule: Cc1csc(CCNC(=O)c2cc3c(nc2O)CCC(C)C3)n1 (stereo not drawn)
// result -46.57

// query Suppose we examine the molecule `Cc1cccc(CN2C[C@@H]3CC[C@H]2CN(Cc2[nH]cnc2C)C3)n1` ; what INHIBITION value has been reported?
// result 25.68

More entries:
// query Name the recorded INHIBITION for `O=C(CNC(=O)c1ccccc1F)NCc1ccccn1` .
// result -20.05

// query Bench note: what INHIBITION did COc1c(CNC2CCc3ccccc32)c(C(C)C)nn1C (stereo not drawn) show?
// result 24.65

// query Form field: reported INHIBITION of Cc1cnn(CC2CN(c3ccc(C#N)cn3)CCO2)c1 (stereo not drawn)
// result -11.2

// query Suppose we examine the molecule CC1CCc2nc(O)c(C(=O)NCc3ccncc3)cc2C1 (stereo not drawn) ; what INHIBITION value has been reported?
// result 1.06

// query Which INHIBITION is listed for Cc1nn(C)c(Cl)c1C1CCCN1Cc1nc(C2CC2)no1 (stereo not drawn) ?
// result 51.94

// query Which INHIBITION reading was recorded for the molecule `Cc1nnc(CN(C)CCCOc2cccc(Cl)c2)o1` ?
// result -33.74

// query Name the reported INHIBITION value associated with the molecule CC(C)C(CNC(=O)CCn1cncn1)N1CCc2ccccc2C1 (stereo not drawn)
// result 16.98

// query What does the data say about its INHIBITION? Entry: COc1c(CNC2CCOc3ccccc32)c(C)nn1C (stereo not drawn)
// result 64.08

====

test system: Plasmodium berghei; test: Screen against P. berghei liver stage (PbLuc), transformed with Luciferase, at 2uM; type: functional, HepG2; conditions: tested at 2 uM
Screen size: about 68,000 compounds; about 2,700 (4%) showed an effect of 50% or more. The sample as a whole holds a higher share of strong results than the screen did.
Decide using INHIBITION alone. Strictly below 20%: satisfied. Equal to or above 20%: not satisfied.

// query INHIBITION strictly < 20% for this compound? c1ncn(CC2CCCN(Cc3noc(C4CC4)n3)C2)n1 (stereo not given)
// result not satisfied

More entries:
// query Regarding CC(O)CN1CCN(C(=O)c2cnn(-c3ccccc3F)c2)CC1 (stereo not given) , kindly confirm whether its INHIBITION is beneath 20%.
// result satisfied

// query Would you kindly verify if INHIBITION of Cc1nc(CN2CCCC(NCc3sccc3C)C2)no1 (stereo not given) is strictly less than 20%?
// result not satisfied

// query INHIBITION under 20%? Item: `CC(C)[C@H](Nc1nc(C2CCCC2)nc2c1cnn2C)C(N)=O`
// result not satisfied

// query Find out if reported INHIBITION for c1ncn(CCNC2CCCN(Cc3noc(C4CC4)n3)C2)n1 (stereo not given) is less than 20%
// result not satisfied

====

test system: Plasmodium berghei; assay: Screen against P. berghei liver stage (PbLuc), transformed with Luciferase, at 2uM; assay type: functional, HepG2; conditions: tested at 2 uM
About 2,700 (4%) of roughly 68,000 compounds showed an effect of 50% or more. The full list was thinned out, with strong results kept by preference.
READOUT LABEL: INHIBITION (%)
Quick note: give the figure in %, leave out the unit.

// query Provide value of INHIBITION for this record tested with Plasmodium berghei: CCOCCN1CCN(CC(O)c2cc(Cl)ccc2Cl)CC1 (stereo not drawn)
// result 50.61

// query Notebook entry, Plasmodium berghei assay: INHIBITION of `O=C(NCc1cccnc1N1CCCCC1)c1cccs1` = ?
// result -27.83

// query Lab request: please report INHIBITION under test system Plasmodium berghei for `CCOC(=O)c1ccc(NC(=O)c2c(O)nc3c(c2O)CCCC3)cc1`
// result -23.02

// query Return INHIBITION measured with Plasmodium berghei given this compound: `O=C(O)c1sccc1Oc1ccc(NC(=O)C2CC2)cc1`
// result 19.62

// query Lab note: need INHIBITION with Plasmodium berghei for entry O=C(NCc1ccccn1)NCC(c1ccco1)N1CCCC1 (stereo not drawn) , please look it up.
// result 53.61

More entries:
// query Look up INHIBITION with Plasmodium berghei for this compound: `Cc1ccc(-c2cc(CNC(=O)N3CCC(N(C)C)CC3)on2)cc1`
// result 23.24

// query Provide value of INHIBITION for this record tested with Plasmodium berghei: `Cc1nc(O)c2nnn(C[C@H]3CCCN3C(=O)c3ccccc3C)c2n1`
// result 83.57

// query What is its INHIBITION for Plasmodium berghei? Entry: CCc1nc(CN(C)C2CCN(CCNS(=O)(=O)CC)C2)no1 (stereo not drawn)
// result 20.71

// query Item: CN(Cc1noc(C2CC2)n1)C1CCN(CCn2cccn2)C1 (stereo not drawn) Test system: Plasmodium berghei Read-out: INHIBITION Value: ?
// result 10.1

// query Field: INHIBITION (Plasmodium berghei). Entry: `Cc1ccc(C(=O)N2CCC[C@@H]2Cn2nnc3c(O)nc(C)nc32)cc1`
// result -15.93

// query So what INHIBITION did `Cn1cc(CN2CCc3nc4sccc4c(=O)n3CC2)cn1` get with Plasmodium berghei?
// result 35.7

// query Reported INHIBITION for Plasmodium berghei, given CCc1nc(CN(C)C2CCN(CCS(C)(=O)=O)C2)no1 (stereo not drawn) ?
// result 50.72

// query Write down the reported INHIBITION of Cc1cc(C)n(CC(C)CNC(=O)N(C)Cc2cc(C)on2)n1 (stereo not drawn) , test system: Plasmodium berghei.
// result 0.89

====

Overview of recorded INHIBITION for various molecules
system: Plasmodium berghei; experiment: Screen against P. berghei liver stage (PbLuc), transformed with Luciferase, at 2uM; format: functional, HepG2; conditions: tested at 2 uM
About 2,700 (4%) of roughly 68,000 compounds showed an effect of 50% or more. This excerpt belongs to a sample that is enriched for strong results.
Please give a number only; it is taken to be in %.

// query Tell me reported INHIBITION for `Cc1cc(OCC(=O)NS(=O)(=O)c2c(C)noc2C)ccc1Cl` , tested with Plasmodium berghei.
// result -12.48

// query Request: INHIBITION, test system Plasmodium berghei, entry `O=C(C1CC=CC1)N1C[C@@H]2CN(Cc3ccsc3)CCO[C@@H]2C1`
// result -10.92

// query Form field: INHIBITION recorded for `Cn1ccc2c(C(=O)N3CCN(C(=O)C4CCCC4)CC3)cccc21` with Plasmodium berghei (enter value)
// result 16.64

// query Lookup: INHIBITION / Plasmodium berghei / Cc1nc(-c2ccncc2)ncc1C(C)NC(=O)CN1CCCC1=O (stereo not given)
// result 28.62

// query So what INHIBITION did CC(C#N)NS(=O)(=O)c1ccc2c(c1)N(C)CCC2 (stereo not given) get with Plasmodium berghei?
// result -95.81

// query Recorded INHIBITION for Cc1[nH]ccc1C(=O)N(C)C1CC(=O)N(Cc2ccccc2)C1=O (stereo not given) with Plasmodium berghei, please?
// result 30.59

// query Look up INHIBITION with Plasmodium berghei for this molecule: `Cc1cc(C)c(OCC(=O)NS(=O)(=O)c2c(C)noc2C)c(C)c1`
// result 5.72

// query Enter reported INHIBITION observed with Plasmodium berghei for `Cc1cc(-c2ccc(=O)n(C3CCN(S(=O)(=O)N(C)C)CC3)n2)c(C)o1`
// result -34.37

// query Recall the recorded INHIBITION for `Cc1ccc(OCC(=O)NS(=O)(=O)c2c(C)noc2C)cc1C` with Plasmodium berghei and state it.
// result 57.33

// query Notebook: pull reported INHIBITION for Plasmodium berghei, entry CN(CC(=O)NC(Cc1ccsc1)c1cccnc1)Cc1cccnc1 (stereo not given)
// result -37.25

More entries:
// query Reported INHIBITION for Plasmodium berghei, given `O=C1Nc2ccccc2CNC12CCN(CC1CC1)CC2` ?
// result 58.42

// query Provide the documented INHIBITION with Plasmodium berghei as the system for Cc1nc(-c2ccncc2)ncc1C(C)NC(=O)Cn1ccccc1=O (stereo not given)
// result 10.02

// query For the record `O=C(c1ccccc1O)N1CCN(C(=O)C2CCC2)CC1` , what value of INHIBITION is listed for Plasmodium berghei?
// result 51.31

// query Entry COc1ccc(CN2CCC(c3cc(O)nc(C)n3)C2)c(OC)c1 (stereo not given) , system Plasmodium berghei: what INHIBITION was measured?
// result 52.01

// query Request - read-out INHIBITION | tested on Plasmodium berghei | molecule `Cc1ncc(C(=O)NCCNc2ccncc2)s1`
// result -60.22

// provenance: ChEMBL document CHEMBL4513216
